# Tested on: NCI-H460 lung
# test method notes: NCI tumour cell line growth inhibition, 48 h
measure name: TGI (µM)
Please give a number only; it is taken to be in µM.

# compound "Cc1cn2c(/C=C3\C(=O)N(C)c4ccc(O)cc43)c(C)nc2s1" ; its TGI = 21.3

# compound "Cc1cc(NS(=O)(=O)c2ccc(Nc3c4ccccc4nc4c(C(=O)NCCN(C)C)cccc34)cc2)no1" ; its TGI = 26.6

# compound "O=C(Nc1ccc(-n2cc(-c3ccncc3)c(-c3ccc(Cl)c(O)c3)n2)cc1)Nc1ccc(Cl)c(C(F)(F)F)c1" ; its TGI = 3.4

# compound "O=C(CSC(c1ccccc1)c1ccccc1)N/N=C/c1ccc(Cl)cc1Cl" ; its TGI = 49.8

---

# Test system: UACC-62 melanoma
# test method notes: NCI tumour cell line growth inhibition, 48 h; in the data active means GI50 below about 0.43 µM; inactive means the rest
Hi! Could you answer with just one of these? active, inactive

Q: Recorded test call requested for "CCOC(=O)CNC(=O)c1ccccc1Nc1ccnc(C(F)(F)F)c1"
A: inactive

Q: Recorded test call requested for "CCc1ccccc1NC(=O)c1sc2nc3c(cc2c1N)C(=O)CCC3"
A: inactive

Q: Recorded test call requested for Cc1cc(C2CC(O)C(CO)O2)cc2c(=O)[nH]c(N)nc12 (centres undefined)
A: inactive

Q: Recorded test call requested for "O=C(Nc1ccc(CO)cc1)c1coc2ccccc2c1=O"
A: inactive

Q: Recorded test call requested for "Cc1cn2c(/C=C3\C(=O)N(C)c4ccc(O)cc43)c(C)nc2s1"
A: inactive

Q: Recorded test call requested for "Cc1ccc(S(=O)(=O)NCCNc2nccc(-c3c(-c4ccc(F)cc4)nc4sccn34)n2)cc1"
A: inactive

Q: Recorded test call requested for "Cc1cc(N/N=C/c2nc(-c3ccc(Br)cc3)oc2C)c2cc(Br)ccc2n1"
A: inactive

Q: Recorded test call requested for "O=C(Nc1ccc(Br)cc1)c1ccc(Cl)c(Cl)c1"
A: inactive

Q: Recorded test call requested for "Cn1cc(C2=C(c3cn(CCCCCN)c4ccccc34)C(=O)NC2=O)c2ccccc21"
A: inactive

Q: Recorded test call requested for "O=C(Nc1ccc(-n2cc(-c3ccncc3)c(-c3ccc(Cl)c(O)c3)n2)cc1)Nc1ccc(Cl)c(C(F)(F)F)c1"
A: inactive

Q: Recorded test call requested for "Nc1nc(SN=Nc2ccc(S(N)(=O)=O)cc2)c2[nH]cnc2n1"
A: active

Q: Recorded test call requested for "O=[N+]([O-])c1ccc2c(c1)C(c1ccccc1Cl)=Nc1cn[nH]c1N2"
A: inactive

Q: Recorded test call requested for "C1C[OH+]CCNCC[OH+]CC[OH+]CCN1.[Cl-].[Pt+4]"
A: inactive

Q: Recorded test call requested for "Cc1cc2c(cc1Cl)SC(=Nc1ccc(Cl)cc1)N(S(=O)(=O)c1ccccc1)S2(=O)=O"
A: inactive

---

# Test system: MCF7 breast
# test method notes: NCI tumour cell line growth inhibition, 48 h; in the data active = GI50 below about 0.43 µM; inactive = the rest
Hi! Could you answer with just one of these? YES for active, NO for inactive

Q: Recorded test call requested for "COc1cc2c3c(n(CCCN(C)C)c(=O)c2cc1OC)-c1ccccc1C3=O"
A: NO

Q: Recorded test call requested for "C[C@]12CC[C@@H]3c4ccc(O)cc4CC[C@H]3[C@@H]1CC[C@@H]2NS(=O)(=O)c1cccc(F)c1"
A: NO

Q: Recorded test call requested for "Cn1cc(C2=C(c3cn(CCCCCN)c4ccccc34)C(=O)NC2=O)c2ccccc21"
A: NO

Q: Recorded test call requested for "C[C@]12CCc3nc(Nc4ccccc4)sc3C1=CC[C@@H]1[C@@H]2CC[C@]2(C)/C(=N/NC(N)=S)CC[C@@H]12"
A: NO

Q: Recorded test call requested for "COc1ccc(-c2oc3cc(O)c(OC)c(O)c3c(=O)c2OC)cc1O"
A: YES

Q: Recorded test call requested for "COc1cc(C2=C(c3cn(C)c4ccccc34)COC2=O)cc(OC)c1OC"
A: YES

Q: Recorded test call requested for "Cc1cn2c(/C=C3\C(=O)N(C)c4ccc(O)cc43)c(C)nc2s1"
A: NO

Q: Recorded test call requested for "COc1ccc(-c2ccc(/C=N/n3c(C)n[nH]c3=S)o2)c([N+](=O)[O-])c1"
A: NO

Q: Recorded test call requested for "COCCOc1cnc2ccn([C@H](C)c3nnc4c(F)cc(-c5cnn(C)c5)cn34)c(=O)c2c1"
A: NO

Q: Recorded test call requested for "CN(CCCNC(=O)Cc1ccc2ccc3cccc4ccc1c2c34)CCCNc1cc(-c2ccc3ccccc3c2)nc2ccccc12"
A: NO

Q: Recorded test call requested for "O=[N+]([O-])c1ccc2c(c1)C(c1ccccc1Cl)=Nc1cn[nH]c1N2"
A: NO

Q: Recorded test call requested for "Cc1cc(I)cc(CN(C)CCCN2CCOCC2)c1O"
A: NO

Q: Recorded test call requested for "Cc1cc(S(=O)(=O)N/N=C(\Sc2cc(Cl)c(C)cc2S(N)(=O)=O)c2ccc(Cl)cc2)c(Cl)cc1Cl"
A: NO

Q: Recorded test call requested for "COc1ccc(Nc2c3ccccc3nc3occ(Cl)c23)cc1"
A: YES

Q: Recorded test call requested for "Cc1cc[c-]cc1.Fc1c[c-]c(-c2ccccn2)c(F)c1.[Pt+2].c1ccc(P(C[PH+](c2ccccc2)c2ccccc2)c2ccccc2)cc1"
A: NO

Q: Recorded test call requested for "CCOC(=O)CNC(=O)c1ccccc1Nc1ccnc(C(F)(F)F)c1"
A: NO

Q: Recorded test call requested for "O=C(COc1ccc(/C=C2\CSc3ccccc3C2=O)cc1)Nc1nccs1"
A: NO

Q: Recorded test call requested for "O=C(/C=C/c1cc(CN2CCOCC2)c(O)c2ncccc12)c1cc(CN2CCOCC2)c(O)c2ncccc12"
A: YES

---

# System: UO-31 renal
# test method notes: NCI tumour cell line growth inhibition, 48 h
Would you kindly list log10(TGI) for each of these molecules?
Kindly note that the scale is log10 and the underlying TGI is in µM.

# molecule "COc1cc(Nc2c3ccccc3nc3ccccc23)ccc1NS(C)(=O)=O" ; its log10(TGI) = 1.23

# molecule "C[C@]12CC[C@H](O)C[C@H]1CC[C@@H]1[C@@H]2CC[C@]2(C)[C@@H](C3=CC(=O)OC3)CC[C@]12O" ; its log10(TGI) = 0.61

# molecule "CN(CCCNC(=O)Cc1ccc2ccc3cccc4ccc1c2c34)CCCNc1cc(-c2ccc3ccccc3c2)nc2ccccc12" ; its log10(TGI) = 0.50

# molecule "COC(=O)/C(C)=C/[N+](=O)[O-]" ; its log10(TGI) = 1.52

# molecule "COC(=O)/C(C=O)=C/Sc1ccccc1" ; its log10(TGI) = 1.49

# molecule "COc1ccc(Nc2c3ccccc3nc3occ(Cl)c23)cc1" ; its log10(TGI) = 1.43

# molecule "CC(C)C(=O)/C=C/c1ccc(Br)cc1" ; its log10(TGI) = 1.48

---

# Tested on: K-562 leukemia
# test method notes: NCI tumour cell line growth inhibition, 48 h
Would you kindly list TGI for each of these compounds?

# compound "COc1ccc2ncn(-c3cc(O[C@H](C)c4ccccc4Cl)c(C(N)=O)s3)c2c1" ; its TGI = > 25 µM

# compound "O=C(/C=C/c1cc(CN2CCOCC2)c(O)c2ncccc12)c1cc(CN2CCOCC2)c(O)c2ncccc12" ; its TGI = > 100 µM

# compound "C=C1C(=O)O[C@H]2[C@H]1CC/C(COC(=O)c1ccc(Cl)nc1)=C\CC[C@@]1(C)O[C@@H]21" ; its TGI = 12.2 µM

# compound "CN(C)Cc1cc(C(=O)/C=C/c2ccccc2Cl)cc(CN(C)C)c1O" ; its TGI = 24.3 µM

# compound "Cc1ccc2nc(Cl)c(/C=N/N3C(=O)/C(=C/c4ccccc4S)N=C3c3ccccc3)cc2c1" ; its TGI = 49 µM

# compound "O=C1Nc2c(ccc(Cl)c2I)C1=O" ; its TGI = 73.2 µM

# compound "Cn1cc(C2=C(c3cn(CCCCCN)c4ccccc34)C(=O)NC2=O)c2ccccc21" ; its TGI = > 25 µM

# compound "Cc1ccc([C@H]2CC(=O)C[C@H](c3ccc(C)cc3)C23C(=O)c2ccccc2C3=O)cc1" ; its TGI = > 100 µM

# compound Cc1cc(C)c(C2[C@H]3C(=O)N(c4ccc(Cc5ccc(N6C(=O)[C@@H]7ON(c8ccccc8)C(c8c(C)cc(C)cc8C)[C@@H]7C6=O)cc5)cc4)C(=O)[C@H]3ON2c2ccccc2)c(C)c1 (stereo not given in full) ; its TGI = > 100 µM

# compound "O=C(Nc1ccc(CO)cc1)c1coc2ccccc2c1=O" ; its TGI = > 100 µM

# compound "O=c1[nH]/c(=C/c2ccc(OCc3ccccc3)cn2)c(=O)[nH]/c1=C/c1ccc(O)cc1" ; its TGI = > 100 µM

# compound "O=c1c2c([N+](=O)[O-])cccc2nc2[nH]c3ccccc3n12" ; its TGI = > 75 µM

# compound O=C(OCC1OC2OC(c3ccccc3)(n3ccc4c([N+](=O)[O-])ccnc43)OC2C1OC(=O)c1ccccc1)c1ccccc1 (stereo not given) ; its TGI = > 100 µM

# compound C=CCSS/C=C/CS(=O)CC=C (stereo not given) ; its TGI = > 77.9 µM

# compound "CCCCCCCCCCCCCCCCCC(=O)O[C@H](COC(=O)CCCCCCCCCCC)COC(=O)CCCCCCCCCCCCCCC" ; its TGI = > 100 µM

# compound "Cc1cc(C)[n+](CCOc2ccc(/C(=C(/Cl)c3ccccc3)c3ccccc3)cc2)c(C)c1" ; its TGI = 8.11 µM

# compound "COc1ccc2c(O)cc3c(c2c1)[C@H](CCl)CN3C(=O)c1cc2cc(NC(=O)CCN3CCOCC3)ccc2[se]1" ; its TGI = > 10 µM

# compound CC1CCOc2ccc(cc2)C=Nc2ccc(cc2)CCc2ccc(cc2)N=Cc2ccc(cc2)OCC1 (stereo not given) ; its TGI = > 100 µM

# compound "CCOC(=O)/C1=C(\C)N(c2ccc(C)cc2)C(=O)c2ccccc2C(=O)c2c(OC(C)=O)ccc(OC(C)=O)c21" ; its TGI = 38.7 µM

# compound "COc1ccc2nc3ccccc3c(NCCCCCCN(CCCl)CCCl)c2c1" ; its TGI = > 18.5 µM

# compound O=C1CC2C(=O)N(Cc3ccccc3)C1C=C2S(=O)(=O)c1ccccc1 (stereo not given) ; its TGI = > 100 µM

# compound "COc1ccc(-c2ccc(/C=N/n3c(C)n[nH]c3=S)o2)c([N+](=O)[O-])c1" ; its TGI = > 100 µM

# compound O=C(NC(Cc1ccc(I)cc1)C(=O)O)c1ccc(Br)cc1 (stereo not given) ; its TGI = > 100 µM

# compound "C1CNCCNCCN1" ; its TGI = > 100 µM

# compound "COC(=O)C1=C(C(=O)OC)SC2(S1)C1=C(CCCC1)SC(C(=O)OC)=C2C(=O)OC" ; its TGI = 21.5 µM

# compound Cc1cc(C2CC(O)C(CO)O2)cc2c(=O)[nH]c(N)nc12 (stereo not given) ; its TGI = > 100 µM

# compound "Cc1[nH]c(=O)[nH]c(=O)c1/C=C/C(=O)O" ; its TGI = > 1000 µM

# compound NC(CS/C(Cl)=C/Cl)C(=O)O (stereo not given) ; its TGI = > 100 µM

# compound O=C1CCCCC(=O)OC2(CCCCC2=O)CC1 (stereo not given) ; its TGI = > 100 µM

# compound "CCn1nc2c3c(ncn3C(C)(C)O2)c1=O" ; its TGI = > 100 µM

# compound "COc1ccc(OC)c2c(/C=C/c3ccc(N(C)C)cc3)ccnc12" ; its TGI = > 10 µM

# compound CC(=O)Nc1cc2c(s1)CCC1CC(=O)NN=C21 (stereo not given) ; its TGI = > 100 µM

# compound "COc1cccc(/C(COc2ccc3c(c2)oc(=O)c2cc(OC)ccc23)=N/O)c1" ; its TGI = > 100 µM

# compound C1CCC2C(C1)CCCC2NC1=NCCO1 (stereo not given) ; its TGI = > 100 µM

# compound "O=C(NCCCCCCNCc1cccc2ccccc12)Nc1cccc2ccccc12" ; its TGI = > 100 µM

# compound "N#Cc1nc(-c2cccs2)oc1N" ; its TGI = > 100 µM

# compound "COCCOc1cnc2ccn([C@H](C)c3nnc4c(F)cc(-c5cnn(C)c5)cn34)c(=O)c2c1" ; its TGI = > 100 µM

# compound "CCCCOC(=O)NC(=O)c1cn(CCCOC(=O)NCCCCCCNC(=O)OCCCn2cc(C(=O)NC(=O)OCCCC)c(=O)[nH]c2=O)c(=O)[nH]c1=O" ; its TGI = > 100 µM

# compound "Nc1ccc(N=Nc2ccccc2)cc1" ; its TGI = > 100 µM

# compound "C[C@]12CC[C@H](O)C[C@H]1CC[C@@H]1[C@@H]2CC[C@]2(C)[C@@H](C3=CC(=O)OC3)CC[C@]12O" ; its TGI = 1.42 µM
